system: Erwinia amylovora PMV6076; assay: MIC, in vitro growth inhibition; format: cell-based; conditions: TSB, 25°C, 48 h, OD 600 nm; tested at 3.1, 6.2, 12.5, 25, 50 μM; three replicates, experiment repeated twice; MIC = lowest concentration with no growth
Where a SMILES comes first, the peptide text is derived from it. Side-chain parts run from the residue outwards. [ ]: non-standard residue; d: D form. The star is where a group is joined. Lauroyl = CCCCCCCCCCCC(=O)*; Hexanoyl = CCCCCC(=O)*; Butyryl = CCCC(=O)*
List of MIC Ea values.

compound | measurement_label | reported_value
CCCCCC(=O)NCCCC[C@@H]1NC(=O)[C@H](CCCCN)NC(=O)[C@H](Cc2ccccc2)NC(=O)[C@H](CCCCN)NC(=O)[C@H](CCCCN)NC(=O)[C@H](CC(C)C)NC(=O)[C@H](CCCCN)NC(=O)[C@H](CCCCN)NC(=O)[C@H](CCC(N)=O)NC(=O)[C@H](CC(C)C)NC1=O [BPC582] (cyclo(FKK(Hexanoyl)LQKKLKK)) | MIC Ea | 12.5 to 25 µM

Please fill in: MIC Ea reported for CCCCCC(=O)NCCCC[C@@H]1NC(=O)[C@H](CCCCN)NC(=O)[C@H](CC(C)C)NC(=O)[C@H](CCCCN)NC(=O)[C@H](CCCCN)NC(=O)[C@H](CCC(N)=O)NC(=O)[C@H](CC(C)C)NC(=O)[C@H](CCCCN)NC(=O)[C@H](CCCCN)NC(=O)[C@@H](Cc2ccccc2)NC1=O [BPC624, c(KKLKK(CO-nC5H11)fKKLQ)] (cyclo(KKLKK(Hexanoyl)[dF]KKLQ)) = 25 to 50 µM

Notebook: CCCC(=O)N[C@@H](CCCCN)C(=O)N[C@@H](CC(C)C)C(=O)NCCCC[C@H]1NC(=O)[C@H](CCCCN)NC(=O)[C@H](CC(C)C)NC(=O)[C@H](CCCCN)NC(=O)[C@H](CCCCN)NC(=O)[C@H](CCC(N)=O)NC(=O)[C@H](CC(C)C)NC(=O)[C@H](CCCCN)NC(=O)[C@H](CCCCN)NC(=O)[C@H](Cc2ccccc2)NC1=O [BPC724, c(KKLKk(LK-CO-C3H7)FKKLQ)] (cyclo(FKKLQKKLK[dK]([Leu-Lys-Butyryl]))) , MIC Ea read as 25 to 50 µM

Consider CCCCCCCCCCCC(=O)NCCCC[C@@H]1NC(=O)[C@H](CCCCN)NC(=O)[C@H](CC(C)C)NC(=O)[C@H](CCCCN)NC(=O)[C@H](CCCCN)NC(=O)[C@H](CCC(N)=O)NC(=O)[C@H](CC(C)C)NC(=O)[C@H](CCCCN)NC(=O)[C@H](CCCCN)NC(=O)[C@H](Cc2ccccc2)NC1=O [BPC530, c(KKLKK(CO-C11H23)FKKLQ)] (cyclo(FKKLQKKLKK(Lauroyl))) . Its measured MIC Ea is 12.5 to 25 µM

Value of measured MIC Ea for the entry CCCC(=O)NCCCC[C@@H]1NC(=O)[C@H](CCC(N)=O)NC(=O)[C@H](CC(C)C)NC(=O)[C@H](CCCCN)NC(=O)[C@H](CCCCN)NC(=O)[C@H](Cc2c[nH]cn2)NC(=O)[C@H](CCCCN)NC(=O)[C@H](CCCCN)NC(=O)[C@H](CC(C)C)NC(=O)[C@H](CCCCN)NC1=O [BPC722] (cyclo(HKKLQK(Butyryl)KLKK)) : >50 µM

Reported MIC Ea for CCCCCC(=O)N[C@@H](CCCCN)C(=O)N[C@@H](CC(C)C)C(=O)NCCCC[C@@H]1NC(=O)[C@H](CCCCN)NC(=O)[C@H](CC(C)C)NC(=O)[C@H](CCCCN)NC(=O)[C@H](CCCCN)NC(=O)[C@H](CCC(N)=O)NC(=O)[C@H](CC(C)C)NC(=O)[C@H](CCCCN)NC(=O)[C@H](CCCCN)NC(=O)[C@H](Cc2ccccc2)NC1=O [BPC596, c(KKLKK(LK-CO-nC5H11)FKKLQ)] (cyclo(FKKLQKKLKK([Leu-Lys-Hexanoyl]))) was 12.5 to 25 µM

###

# MIC Pss annotations
system: Pseudomonas syringae pv. syringae EPS94; assay type: cell-based; conditions: 48 h
Where a SMILES comes first, the peptide text is derived from it. Side-chain parts run from the residue outwards. [ ]: non-standard residue; d: D form. The star is where a group is joined. Pentanoyl(4-Me) = CC(C)CCC(=O)*; Hexanoyl = CCCCCC(=O)*

Solved entries:
compound | study_system | MIC Pss
CCCCCC(=O)NCCCC[C@@H]1NC(=O)[C@H](CCC(N)=O)NC(=O)[C@H](CC(C)C)NC(=O)[C@H](CCCCN)NC(=O)[C@H](CCCCN)NC(=O)[C@@H](Cc2ccccc2)NC(=O)[C@H](CCCCN)NC(=O)[C@H](CCCCN)NC(=O)[C@H](CC(C)C)NC(=O)[C@H](CCCCN)NC1=O [BPC686, c(K(CO-nC5H11)KLKKfKKLQ)] (cyclo(K(Hexanoyl)KLKK[dF]KKLQ)) | Pseudomonas syringae pv. syringae EPS94 | 12.5 to 25 µM
CC(C)CCC(=O)NCCCC[C@@H]1NC(=O)[C@H](CCCCN)NC(=O)[C@H](CC(C)C)NC(=O)[C@H](CCCCN)NC(=O)[C@H](CCCCN)NC(=O)[C@H](CCC(N)=O)NC(=O)[C@H](CC(C)C)NC(=O)[C@H](CCCCN)NC(=O)[C@H](CCCCN)NC(=O)[C@H](Cc2c[nH]cn2)NC1=O [BPC638, c(KKLKK(CO-isoC5H11)HKKLQ)] (cyclo(HKKLQKKLKK(Pentanoyl(4-Me)))) | Pseudomonas syringae pv. syringae EPS94 | 6.2 to 12.5 µM

The reported MIC Pss value, Pseudomonas syringae pv. syringae EPS94, for CCCCCC(=O)N[C@@H](CCCCN)C(=O)N[C@@H](CC(C)C)C(=O)NCCCC[C@@H]1NC(=O)[C@H](CCCCN)NC(=O)[C@H](CC(C)C)NC(=O)[C@H](CCCCN)NC(=O)[C@H](CCCCN)NC(=O)[C@H](CCC(N)=O)NC(=O)[C@H](CC(C)C)NC(=O)[C@H](CCCCN)NC(=O)[C@H](CCCCN)NC(=O)[C@H](Cc2ccccc2)NC1=O [BPC596, c(KKLKK(LK-CO-nC5H11)FKKLQ)] (cyclo(FKKLQKKLKK([Leu-Lys-Hexanoyl]))) reads 6.2 to 12.5 µM

###

tested on: Erwinia amylovora PMV6076; assay: MIC, in vitro growth inhibition; assay type: cell-based; conditions: TSB, 25°C, 48 h, OD 600 nm; tested at 3.1, 6.2, 12.5, 25, 50 μM; three replicates, experiment repeated twice; MIC = lowest concentration with no growth
Where a SMILES comes first, the peptide text is derived from it. The star is where a group is joined. X1 = O=C(CCCCCCCCCCCO)*; Hexanoyl = CCCCCC(=O)*
measurement_label: MIC Ea

Previously resolved entries follow.
compound | study_system | MIC Ea
CCCCCC(=O)NCCCC[C@@H]1NC(=O)[C@H](CCCCN)NC(=O)[C@H](CC(C)C)NC(=O)[C@H](CCCCN)NC(=O)[C@H](CCCCN)NC(=O)[C@H](CCC(N)=O)NC(=O)[C@H](CC(C)C)NC(=O)[C@H](CCCCN)NC(=O)[C@H](CCCCN)NC(=O)[C@H](Cc2c[nH]cn2)NC1=O [BPC636, c(KKLKK(CO-nC5H11)HKKLQ)] (cyclo(HKKLQKKLKK(Hexanoyl))) | Erwinia amylovora PMV6076 | 25 to 50 µM
CC(C)C[C@@H]1NC(=O)[C@H](CCCCN)NC(=O)[C@H](CCCCN)NC(=O)[C@H](CCC(N)=O)NC(=O)[C@H](CC(C)C)NC(=O)[C@H](CCCCN)NC(=O)[C@H](CCCCN)NC(=O)[C@H](Cc2ccccc2)NC(=O)[C@H](CCCCNC(=O)CCCCCCCCCCCO)NC(=O)[C@H](CCCCN)NC1=O [BPC524, c(KKLKK(CO-C11H22OH)FKKLQ)] (cyclo(FKKLQKKLKK(X1))) | Erwinia amylovora PMV6076 | 25 to 50 µM

Field: next compound
The compound listed as CC(C)C[C@@H]1NC(=O)[C@H](CCCCN)NC(=O)[C@H](CCCCN)NC(=O)[C@H](CCC(N)=O)NC(=O)[C@H](CC(C)C)NC(=O)[C@H](CCCCN)NC(=O)[C@H](CCCCN)NC(=O)[C@H](Cc2ccccc2)NC(=O)[C@H](CCCCN)NC(=O)[C@H](CCCCN)NC1=O [BPC194] (cyclo(FKKLQKKLKK)) has a reported MIC Ea of 6.2 to 12.5 µM
